- Tested on: SR
- Test Protocol: NCI tumour cell line growth inhibition, 48 h
Activity calls are given as the source filed them. Cut-off read from the data, not from the text of the source: active = GI50 up to about 1.1 µM and inactive = higher.
Just give me one of these, please: active, inactive

O=C1CSC(c2cc3cc(Br)ccc3nc2Cl)N1c1ccc(Cl)cc1 (stereo not drawn): inactive
CN(C)c1ccc2nc3c(C(=O)O)cc(O)c(O)c3[o+]c2c1: inactive
C[C@]12CC[C@H](O)CC1=CC[C@@H]1[C@@H]2CC[C@]2(C)C(=N/O)/C(=C/c3ccc([N+](=O)[O-])cc3)C[C@@H]12: inactive

# evaluate next
Dear all, I need the recorded test outcome for "Cc1cc2c(=O)cc(-c3ccc(C(=O)O)cc3)oc2c(C(=O)O)c1C" , thank you. inactive
